These entries and their values trace back to the supplement of paper PMC11208160.

# Method: recombinant barcode read abundance after kanamycin selection (control-corrected) (log10(CPM+1)); higher = more efficient recombination; sequences stand for … in AGTGCAGAGAAAATCGGCCAGTTTTCTCTGCCTGCAGTCCGCATGCCGT…AGATTTATGCAGCGGACTGCCTTTCTCCCAAAGTGATAAACCGGACAGTATCATGGACCGGTTTTCCCGGTAATCCGTATTTGCAAGGTTGGTTTCACT; site = the 11-nt target;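 further: IS621 recombinase and bridge RNA in Escherichia coli cells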
Entries and their recombinant barcode read abundance (log10) values follow.
Value type: recombinant barcode read abundance (log10)

Record sequence	Observed result
CTAAGAACTTGGGTTCTAACCTGTTGCTT (site CTAAGAACTAC)	0.509
AGTCTACCTTGGGTTCTAACCTGTTGCTT (site CGTCTACCTAA)	0.0324
ATAAGGCCTTGGGTTCTAACCTGTTGCCT (site ATAAGGCCTAG)	0.154
TCCTAGTCTTGGGTTCTAACCTGTTGCCA (site GCCTAGTCTTG)	0.405
TGTCAATCTTGGGTTCTAACCTGTTGCCT (site TGTCAAACTAG)	0.243
TCTTGGACTTGGGTTCTAACCTGTTGCTG (site TCTTGGACTCA)	0.0828
CTATAGACTTGGGTTCTAACCTGTTGCCA (site CTCTAGACTAG)	0.206
GTTGGTCCTTGGGTTCTAACCTGTTGCGT (site GTGAGTCCTAC)	0.136
CTCTACACTTGGGTTCTAACCTGTTGCCA (site CTCTAAACTTG)	0.0347
TTGCGAGCTTGGGTTCTAACCTGTTGCAT (site TTGCGAGCTAT)	1.82
GAGTAGACTTGGGTTCTAACCTGTTGCTT (site GAGTAGACTAA)	1.64
AGCGTTGCTTGGGTTCTAACCTGTTGCCT (site AGCGTTGCTAG)	1.05
CAGACGACTTGGGTTCTAACCTGTTGCCA (site CAGACGACTTG)	0.37
TACCCGCCTTGGGTTCTAACCTGTTGCCT (site TCCCCGGCTAG)	0.206
TGATTGACTTGGGTTCTAACCTGTTGCTT (site TGATTGACTAA)	0.0769
GAGTTCCCTTGGGTTCTAACCTGTTGCGT (site GAGTTCCCTAC)	2.66
TCATCTCCTTGGGTTCTAACCTGTTGCCT (site CCATCTCCTAG)	0.0972
TCGGATACTTGGGTTCTAACCTGTTGCCA (site TAGGACACTTG)	0.0618
TGAAATACTTGGGTTCTAACCTGTTGCCT (site TGAAGTACTAG)	0
GCAAGCTCTTGGGTTCTAACCTGTTGCTA (site GCAAGGTCTTA)	0.36
TCCAACCCTTGGGTTCTAACCTGTTGCGG (site TCAAACCCTCC)	0.0107
GTAGGAACTTGGGTTCTAACCTGTTGCTG (site CGGCTGTCTAG)	0.0122
CCGTGCCCTTGGGTTCTAACCTGTTGCCT (site CCGTGCCCTAG)	0.676
TAACATACTTGGGTTCTAACCTGTTGCAT (site TAACTTACTAT)	0.0391
CGTTCGACTTGGGTTCTAACCTGTTGCAT (site CGTGCGACTAT)	0.174
CTCCGTCCTTGGGTTCTAACCTGTTGCTT (site CTCCGACCTAA)	0.106
AGGTTTGCTTGGGTTCTAACCTGTTGCCT (site AGGTTTGCTAG)	0.0479
GGTCATGCTTGGGTTCTAACCTGTTGCCT (site GGTCATACTAG)	0.169
TACGCTCCTTGGGTTCTAACCTGTTGCAT (site TACGCTCCTAT)	0.785
TGATATGCTTGGGTTCTAACCTGTTGCCT (site TGACATGCTAG)	0.347
GGACAATCTTGGGTTCTAACCTGTTGCCT (site GGACCATCTAG)	0.174
ATCTTGTCTTGGGTTCTAACCTGTTGCGG (site CATGATACTAG)	0.102
CCAATCTCTTGGGTTCTAACCTGTTGCCT (site CCAATCTCTAG)	0.276
AAAATGCCTTGGGTTCTAACCTGTTGCCT (site AAAATGCCTAG)	0.359
GTAAGTACTTGGGTTCTAACCTGTTGCCA (site GTAAGTACTTG)	1.54
CGAGGGGCTTGGGTTCTAACCTGTTGCCT (site CGAGGGACTAG)	0.127
TGGCCCTCTTGGGTTCTAACCTGTTGCTA (site TGGCCCTCTTA)	2.03
CGTCGTACTTGGGTTCTAACCTGTTGCCT (site CGTCGTACTAG)	0.136
CTCGACCCTTGGGTTCTAACCTGTTGCCT (site CTCGACCCTAG)	1.7
TGCGACTCTTGGGTTCTAACCTGTTGCCT (site TGTGACTCTAG)	0.0576
GGAGCAGCTTGGGTTCTAACCTGTTGCCT (site GGAGCAGCTAG)	1.16
CCTAGATCTTGGGTTCTAACCTGTTGCCT (site CCTAGACCTAG)	0.141
